test: Half life in C57BL/6 mouse liver at 10 mg/kg, ip administered as single dose by mass spectrometry; type: ADME, organism-based
parameter: half-life (h)
Just the number in h, nothing appended.

Past entries and their recorded results:
>>> recorded_result("CN1C(=O)c2cc(NC(=O)c3ccc(C(F)(F)F)cc3)ccc2OC[C@@H]2O[C@H](CC(=O)NC3Cc4ccccc4C3)CC[C@@H]21")
2.25
>>> recorded_result("CC(C)COC(=O)NC[C@@H]1CC[C@H]2[C@H](COc3ccc(NC(=O)c4ccc(C(F)(F)F)cc4)cc3C(=O)N2C)O1")
1.16

// moving on: another record for half-life
Which half-life reading was recorded for the molecule `CN1C(=O)c2cc(NC(=O)c3ccc(C(F)(F)F)cc3)ccc2OC[C@@H]2O[C@H](CNc3nnc(C4CCC4)o3)CC[C@@H]21` ?
1.78

====

assay: Stability in mouse liver microsomes assessed as parent compound remaining at 1 uM incubated for 60 mins under shaking condition by UPLC/MS analysis; assay type: ADME, Microsome; conditions: read-out: Stability
We begin with a simple list: items and their reported remaining at 1 h, 1 µM.
Just the number in %, nothing appended.

Past entries and their recorded results:
>>> recorded_result("CN1C(=O)c2cc(NC(=O)c3ccc(C(F)(F)F)cc3)ccc2OC[C@@H]2O[C@H](CC(=O)NC3Cc4ccccc4C3)CC[C@@H]21")
0
>>> recorded_result("CN1C(=O)c2cc(NC(=O)c3ccc(C(F)(F)F)cc3)ccc2OC[C@@H]2O[C@H](CNC(=O)[C@@H]3CCCO3)CC[C@@H]21")
54
>>> recorded_result("CN1C(=O)c2cc(NC(=O)c3ccc(C(F)(F)F)cc3)ccc2OC[C@@H]2O[C@H](CNC(=O)CC(C)(C)C)CC[C@@H]21")
0
>>> recorded_result("CN1C(=O)c2cc(NC(=O)c3ccc(C(F)(F)F)cc3)ccc2OC[C@@H]2O[C@H](CNc3nnc(C4CCC4)o3)CC[C@@H]21")
18

// moving on: another record for remaining at 1 h, 1 µM
Which remaining at 1 h, 1 µM reading was recorded for the compound `CC(C)COC(=O)NC[C@@H]1CC[C@H]2[C@H](COc3ccc(NC(=O)c4ccc(C(F)(F)F)cc4)cc3C(=O)N2C)O1` ?
28

====

assay: Cmax in C57BL/6 mouse liver at 10 mg/kg, ip administered as single dose by mass spectrometry; assay type: ADME, organism-based; parameters: dose 10 mg/kg, route intraperitoneal
parameter: Cmax (ng/mL)
Just the number in ng/mL, nothing appended.

>>> recorded_result("CC(C)COC(=O)NC[C@@H]1CC[C@H]2[C@H](COc3ccc(NC(=O)c4ccc(C(F)(F)F)cc4)cc3C(=O)N2C)O1")
13100

Which Cmax reading was recorded for the compound `CN1C(=O)c2cc(NC(=O)c3ccc(C(F)(F)F)cc3)ccc2OC[C@@H]2O[C@H](CNc3nnc(C4CCC4)o3)CC[C@@H]21` ?
13800

Check `CN1C(=O)c2cc(NC(=O)c3ccc(C(F)(F)F)cc3)ccc2OC[C@@H]2O[C@H](CC(=O)NC3Cc4ccccc4C3)CC[C@@H]21` too.
4660

====

assay: Half life in C57BL/6 mouse plasma at 10 mg/kg, ip administered as single dose by mass spectrometry; type: ADME, organism-based
parameter: half-life (h)
Just the number in h, nothing appended.

Past entries and their recorded results:
>>> recorded_result("CN1C(=O)c2cc(NC(=O)c3ccc(C(F)(F)F)cc3)ccc2OC[C@@H]2O[C@H](CNc3nnc(C4CCC4)o3)CC[C@@H]21")
1.46
>>> recorded_result("CC(C)COC(=O)NC[C@@H]1CC[C@H]2[C@H](COc3ccc(NC(=O)c4ccc(C(F)(F)F)cc4)cc3C(=O)N2C)O1")
1.12

// moving on: another record for half-life
Which half-life reading was recorded for the compound `CN1C(=O)c2cc(NC(=O)c3ccc(C(F)(F)F)cc3)ccc2OC[C@@H]2O[C@H](CC(=O)NC3Cc4ccccc4C3)CC[C@@H]21` ?
1.63

Source: ChEMBL document CHEMBL4368855
